compounds and their reported MIC
Test system: Clostridium perfringens
Test: Compound was tested for in vitro antibacterial activity against Clostridium perfringens 615E
Format: functional
measurement_type: MIC (µg/mL)

compound	value_units	result_operator	quantitative_result
C[C@@H](O)[C@H]1C(=O)N2C(C(=O)[O-])=C3[C@@H](OCCO)CCC[C@@H]3[C@H]12.[K+]	µg/mL	=	0.06
C[C@@H](O)[C@H]1C(=O)N2C(C(=O)[O-])=C3[C@@H](OCCF)CCC[C@@H]3[C@H]12.[K+]	µg/mL	≤	0.01
C[C@@H](O)[C@H]1C(=O)N2C(C(=O)O)=C(SCCNC=N)C[C@H]12 [IMIPENEM ANHYDROUS]	µg/mL	=	0.03
COCCO[C@H]1CCC[C@H]2C1=C(C(=O)[O-])N1C(=O)[C@H]([C@@H](C)O)[C@@H]21.[K+]	µg/mL	=	0.03
COCCO[C@H]1CCC[C@@H]2C1=C(C(=O)[O-])N1C(=O)[C@H]([C@@H](C)O)[C@@H]21.[K+]	µg/mL	>	32
CO[C@H]1CCC[C@H]2C1=C(C(=O)[O-])N1C(=O)[C@H]([C@@H](C)O)[C@@H]21.[Na+] [SANFETRINEM SODIUM]	µg/mL	=	0.03
C[C@@H](O)[C@H]1C(=O)N2C(C(=O)[O-])=C3[C@@H](OCCC#N)CCC[C@@H]3[C@H]12.[K+]	µg/mL	=	0.03
